system: A549; assay: Euclidean distance of Cell Painting phenotypic profile (signed KS, 77 features) to DMSO centroid (dimensionless distance); 5 or 10 uM (library dependent); higher = stronger phenotypic change vs DMSO (phenoactivity); conditions: 48 h
Structures can show the parent of a compound that is named as a salt.
Kindly return Satisfied if reported Euclidean distance is no lower than 1; return Not satisfied if it is lower.

Answered cases to consult:
[
  {
    "compound": "Nc1ccc2cc3ccc(N)cc3nc2c1 [Proflavine Hemisulfate]",
    "system.tested": "A549",
    "class.name": "Satisfied"
  },
  {
    "compound": "COc1cc(OC)cc(N(CCNC(C)C)c2ccc3ncc(-c4cnn(C)c4)nc3c2)c1",
    "system.tested": "A549",
    "class.name": "Satisfied"
  },
  {
    "compound": "OCCN(CCO)c1nc(N2CCCCC2)c2nc(N(CCO)CCO)nc(N3CCCCC3)c2n1 [Dipyridamole]",
    "system.tested": "A549",
    "class.name": "Not satisfied"
  }
]

Query: Record COc1c(N2C[C@@H]3CCCN[C@@H]3C2)c(F)cc2c(=O)c(C(=O)O)cn(C3CC3)c12 [Moxifloxacin] ; criterion: Euclidean distance no lower than 1. Met?
Reply: Not satisfied

Query: Record Cc1ccc(NC(=O)c2ccc(CN3CCN(C)CC3)cc2)cc1Nc1nccc(-c2cccnc2)n1 [Imatinib (STI571)] ; criterion: Euclidean distance no lower than 1. Met?
Reply: Satisfied

Query: Record CNCCC(Oc1ccc(C(F)(F)F)cc1)c1ccccc1 (stereo unspecified) [Fluoxetine HCl] ; criterion: Euclidean distance no lower than 1. Met?
Reply: Satisfied

Query: Record COCCNCc1ccc(-c2cc3nccc(Oc4ccc(NC(=O)C5(C(=O)Nc6ccc(F)cc6)CC5)cc4F)c3s2)nc1 [Sitravatinib (MGCD516)] ; criterion: Euclidean distance no lower than 1. Met?
Reply: Satisfied

Query: Record CC(=O)c1cc([N+](=O)[O-])c(Sc2cccc(Cl)c2Cl)s1 ; criterion: Euclidean distance no lower than 1. Met?
Reply: Not satisfied

Query: Record O=C(O)CCCCCCCC(=O)O [Azelaic acid] ; criterion: Euclidean distance no lower than 1. Met?
Reply: Satisfied

Query: Record CC(C)Oc1ccc(-c2nc(-c3cccc4c3CC[C@@H]4NCCO)no2)cc1C#N [Ozanimod (RPC1063)] ; criterion: Euclidean distance no lower than 1. Met?
Reply: Satisfied

Query: Record CO/N=C(\C(=O)N[C@@H]1C(=O)N2C(C(=O)[O-])=C(C[n+]3cccc4c3CCC4)CS[C@H]12)c1csc(N)n1 [Cefpirome sulfate] ; criterion: Euclidean distance no lower than 1. Met?
Reply: Not satisfied

Query: Record C[C@@H](c1nc(-c2ccc(C#N)cc2)cs1)[C@](O)(Cn1cncn1)c1cc(F)ccc1F [Isavuconazole] ; criterion: Euclidean distance no lower than 1. Met?
Reply: Satisfied

Query: Record Cc1cn(-c2cc(NC(=O)c3ccc(C)c(Nc4nccc(-c5cccnc5)n4)c3)cc(C(F)(F)F)c2)cn1 [Nilotinib hydrochloride] ; criterion: Euclidean distance no lower than 1. Met?
Reply: Satisfied

Query: Record CCCC(=O)Nc1ccc(OCC(O)CNC(C)C)c(C(C)=O)c1 (stereo unspecified) [Acebutolol HCl] ; criterion: Euclidean distance no lower than 1. Met?
Reply: Not satisfied

Query: Record CCOC(=O)N1CCC(=C2c3ccc(Cl)cc3CCc3cccnc32)CC1 [Loratadine] ; criterion: Euclidean distance no lower than 1. Met?
Reply: Satisfied

Query: Record CCc1oc2ccccc2c1C(=O)c1cc(Br)c(O)c(Br)c1 [Benzbromarone] ; criterion: Euclidean distance no lower than 1. Met?
Reply: Not satisfied

Query: Record COc1cc2nc(N3CCN(C(=O)C4COc5ccccc5O4)CC3)nc(N)c2cc1OC (stereo unspecified) [Doxazosin] ; criterion: Euclidean distance no lower than 1. Met?
Reply: Satisfied

Query: Record O=C(Nc1ccc([N+](=O)[O-])cc1Cl)c1cc(Cl)ccc1O [Niclosamide] ; criterion: Euclidean distance no lower than 1. Met?
Reply: Satisfied

Query: Record C[C@H](NCc1ccc(OCc2cccc(F)c2)cc1)C(N)=O [Safinamide Mesylate] ; criterion: Euclidean distance no lower than 1. Met?
Reply: Not satisfied

Query: Record Cn1c(Nc2ccc(C(F)(F)F)cc2)nc2cc(Oc3ccnc(-c4ncc(C(F)(F)F)[nH]4)c3)ccc21 ; criterion: Euclidean distance no lower than 1. Met?
Reply: Satisfied

Query: Record O=C(O)CC1CC(c2ccccc2)=NO1 (stereo unspecified) ; criterion: Euclidean distance no lower than 1. Met?
Reply: Satisfied

Query: Record NC1(Cc2ccc(Cl)cc2)CCN(c2ncnc3[nH]ccc23)CC1 ; criterion: Euclidean distance no lower than 1. Met?
Reply: Satisfied

Query: Record CNS(=O)(=O)Cc1ccc2[nH]cc(CCN(C)C)c2c1 [Sumatriptan Succinate] ; criterion: Euclidean distance no lower than 1. Met?
Reply: Satisfied

Query: Record CC1(C)S[C@@H]2[C@H](NC(=O)COc3ccccc3)C(=O)N2[C@H]1C(=O)O [Penicillin V potassium salt] ; criterion: Euclidean distance no lower than 1. Met?
Reply: Satisfied

Query: Record O=C(NCCCNc1nc(Nc2cccc(NC(=O)N3CCCC3)c2)ncc1I)c1cccs1 ; criterion: Euclidean distance no lower than 1. Met?
Reply: Satisfied
